Test system: 496974-208-R-J2-PDC complex spheroids, growth % test/control;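 further: spheroids exposed to the drugs for 7 days before readout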
test.details: Anticancer human tumor 496974-208-R-J2-PDC patient-derived pancreatic carcinoma cell line growth inhibition [CLK]
experimental.conditions: curve of first compound; second compound 0.0316 µM
reported.property: pIC50
Notebook: values listed as pIC50 are -log10 of the concentration (mol/L).

| molecule | pIC50 |
| --- | --- |
| NC(=O)C(=Cn1cnc(-c2cc(C(F)(F)F)cc(C(F)(F)F)c2)n1)c1cncnc1 + CN1CCN(c2cc(C(=O)Nc3cc4cc(-c5cnn(C)c5)ccc4cn3)ccn2)CC1 | 7.09 |

Continue with the next molecule.
Request body: readout pIC50, system 496974-208-R-J2-PDC complex spheroids, growth % test/control, query COC1C=CCC(C)C(C)S(=O)(=O)NC(=O)c2ccc3c(c2)N(CC2CCC21)CC1(CCCc2cc(Cl)ccc21)CO3 (stereo not drawn) + CN1CCN(c2cc(C(=O)Nc3cc4cc(-c5cnn(C)c5)ccc4cn3)ccn2)CC1 . Return the value.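 Further: spheroids exposed to the drugs for 7 days before readout.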
5.00
